Catalogue of MIC values
- Test system: Trichophyton rubrum
- assay.method.text: Antimicrobial activity against Trichophyton rubrum NBRC5467 assessed as inhibition of […] growth incubated for 48 hrs by liquid microculture method
- Format: functional

molecule	unit.abbrev	MIC
C/C=C/c1ccccc1C/C=C/C=C\Cc1cc(=O)c2ccccc2[nH]1	µg/mL	13
C[C@@H]1[C@H](O)[C@@H](C)/C=C/C=C/C=C/C=C/C=C/C=C/C=C/[C@H](O[C@@H]2O[C@H](C)[C@@H](O)[C@H](N)[C@@H]2O)C[C@@H]2O[C@](O)(C[C@@H](O)C[C@@H](O)[C@H](O)CC[C@@H](O)C[C@@H](O)CC(=O)O[C@H]1C)C[C@H](O)[C@H]2C(=O)O	µg/mL	0.78
C/C=C/c1ccccc1/C=C/C=C/C(O)Cc1cc(=O)c2ccccc2[nH]1 (racemic)	µg/mL	6.3
C/C=C/c1ccccc1C/C=C/C=C\CC(=O)O	µg/mL	13
